MEASUREMENT TARGET: T1, Mcl-1, Q07820
T1 chain: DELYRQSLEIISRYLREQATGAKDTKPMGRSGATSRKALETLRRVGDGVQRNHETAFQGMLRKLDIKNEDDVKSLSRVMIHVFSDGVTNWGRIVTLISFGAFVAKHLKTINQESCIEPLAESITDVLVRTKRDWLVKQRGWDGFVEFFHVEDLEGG
TEST: peptide SPOT array, c-Myc-tagged receptor at 1 uM or 100 nM, anti-c-Myc-Cy3
Recorded SPOT signal as a fraction of Bim BH3's signal on the same receptor and array by entry
REPORTED ENDPOINT: SPOT signal as a fraction of Bim BH3's signal on the same receptor and array

[
  {
    "BINDER": "DISALTASNLLKKYAEKYSGILEGPV [FIGN]",
    "REPORTED": 0.13
  },
  {
    "BINDER": "RAKASSLSEELKHFLDGLETDGTLQK [DSN1]",
    "REPORTED": 0.18
  },
  {
    "BINDER": "PSLSKELTSSLAGVLDVSFDSDSQFP [CRTC1]",
    "REPORTED": 0.01
  },
  {
    "BINDER": "NKSLTTLGLVDSSLADQAAGKGKSKF [KIF13A]",
    "REPORTED": 0.19
  },
  {
    "BINDER": "RCELQICGLAMADALEYLCVCGQERT [OBSCN]",
    "REPORTED": 0.02
  },
  {
    "BINDER": "DKATENCVCILHNLSYQLEAELPEKY [PKP2]",
    "REPORTED": 0.01
  },
  {
    "BINDER": "TPSRSALSSELSLVLDTTGDTLEKFV [CREBBP]",
    "REPORTED": 0.01
  },
  {
    "BINDER": "QDKMLVAVKALKEASESARQDFQREA [NTRK1]",
    "REPORTED": 0.02
  },
  {
    "BINDER": "ITVVGDVGGRDAIIVDDIIDDVESFV [PRPSAP1]",
    "REPORTED": 0.01
  },
  {
    "BINDER": "SKFVILSAHKLVFILDTLTRQVTAQD [NEDD9]",
    "REPORTED": 0.04
  },
  {
    "BINDER": "LDFTFVCPTEIIAFLDRLEEFRSINT [PRDX4]",
    "REPORTED": 0.05
  },
  {
    "BINDER": "NKDGKSVSNRLRRLSDNCGGKVLSIT [KIAA0430]",
    "REPORTED": 0.21
  },
  {
    "BINDER": "AIILCNVCGNLCTDCDRFLHLHRRTK [MYCBP2]",
    "REPORTED": 0.29
  },
  {
    "BINDER": "VFERCELARTLKRLGMDGYRGISLAN [LYZ]",
    "REPORTED": 0.38
  }
]

Value source: paper PMC4072508
